Value source: paper PMC6268586

- methodNotes: Tissue distribution of THP, DHC and protopine in rat tissues after gastric gavage administration (HPLC-UV, non-compartmental analysis)
- Type: in vivo, Wistar male rats
- testContext: male, Wistar, po, 6.45 mg/kg, rat diencephalons, read-out: Tmax of THP
measuredQuantity: Tmax (min)
All answers are understood in min, so give the number only.

Param item = COc1cc2c(cc1OC)[C@@H]1Cc3ccc(OC)c(OC)c3CN1CC2 [THP, tetrahydropalmatine] ; retrieve measured Tmax.
16.2

----------
- methodNotes: Tissue distribution of THP, DHC and protopine in rat tissues after gastric gavage administration (HPLC-UV, non-compartmental analysis)
- Format: in vivo, Wistar male rats
- testContext: male, Wistar, po, 6.45 mg/kg, rat striatum, read-out: MRT of THP
measuredQuantity: MRT (h)
Reply with just the number (in h).

Requested read-out: MRT. Entry: COc1cc2c(cc1OC)[C@@H]1Cc3ccc(OC)c(OC)c3CN1CC2 [THP, tetrahydropalmatine]
7.69

----------
- methodNotes: Tissue distribution of THP, DHC and protopine in rat tissues after gastric gavage administration (HPLC-UV, non-compartmental analysis)
- Assay type: in vivo, Wistar male rats
- testContext: male, Wistar, po, 6.45 mg/kg, rat diencephalons, read-out: AUC0–24 h of THP
measuredQuantity: AUC(0-t) (ng·h/mL)
// note: answer is a bare numeric in ng·h/mL

Requested read-out: AUC(0-t). Entry: COc1cc2c(cc1OC)[C@@H]1Cc3ccc(OC)c(OC)c3CN1CC2 [THP, tetrahydropalmatine]
1670

----------
- methodNotes: Tissue distribution of THP, DHC and protopine in rat tissues after gastric gavage administration (HPLC-UV, non-compartmental analysis)
- Format: in vivo, Wistar male rats
- testContext: male, Wistar, po, 26.1 mg/kg, rat brain stem, read-out: Tmax of DHC
measuredQuantity: Tmax (min)
State the answer as a number, implicitly in min.

Please look up its Tmax: COc1cc2c(cc1OC)-c1c(C)c3ccc(OC)c(OC)c3c[n+]1CC2 [DHC, dehydrocorydaline]
30

----------
- methodNotes: Tissue distribution of THP, DHC and protopine in rat tissues after gastric gavage administration (HPLC-UV, non-compartmental analysis)
- Format: in vivo, Wistar male rats
- testContext: male, Wistar, po, 4.52 mg/kg, rat brain stem, read-out: AUC0–24 h of protopine
- Method: The experimental protocol was approved by the University's Animal Ethics Committee. […] Rats had unlimited access to water. Standard food was given until 12 h before the experiments. Rhizoma Corydalis was processed according to Pharmacopoeia of Chinese Medicine and National Guideline of Traditional Chinese Medicinal Plants Processing. Briefly, fresh Rhizoma Corydalis was boiled in water till the pith turn light brown color. Cooked rhizome was sliced into pieces (4 mm, diameter) and dried at 25 °C. […]
measuredQuantity: AUC(0-t) (ng·h/mL)
Unit ng·h/mL implied. Number only.

Would you kindly share the measured AUC(0-t) for CN1CCc2cc3c(cc2C(=O)Cc2ccc4c(c2C1)OCO4)OCO3 ?
2020

----------
- methodNotes: Tissue distribution of THP, DHC and protopine in rat tissues after gastric gavage administration (HPLC-UV, non-compartmental analysis)
- Assay type: in vivo, Wistar male rats
- testContext: male, Wistar, po, 26.1 mg/kg, rat heart, read-out: MRT of DHC
measuredQuantity: MRT (h)
Just the number please, in h, no unit attached.

What value of MRT has been reported for the following molecule? COc1cc2c(cc1OC)-c1c(C)c3ccc(OC)c(OC)c3c[n+]1CC2 [DHC, dehydrocorydaline]
8.72

----------
- methodNotes: Tissue distribution of THP, DHC and protopine in rat tissues after gastric gavage administration (HPLC-UV, non-compartmental analysis)
- Format: in vivo, Wistar male rats
- testContext: male, Wistar, po, 4.52 mg/kg, rat spleen, read-out: MRT of protopine
measuredQuantity: MRT (h)
Report the figure in h without appending any unit label.

Using the record for CN1CCc2cc3c(cc2C(=O)Cc2ccc4c(c2C1)OCO4)OCO3 , report its MRT.
5.65

----------
- methodNotes: Tissue distribution of THP, DHC and protopine in rat tissues after gastric gavage administration (HPLC-UV, non-compartmental analysis)
- Format: in vivo, Wistar male rats
- testContext: male, Wistar, po, 26.1 mg/kg, rat lung, read-out: Tmax of DHC
measuredQuantity: Tmax (min)
Reply numerically in min, unit not repeated.

Recorded Tmax of COc1cc2c(cc1OC)-c1c(C)c3ccc(OC)c(OC)c3c[n+]1CC2 [DHC, dehydrocorydaline] , please.
15

----------
- methodNotes: Tissue distribution of THP, DHC and protopine in rat tissues after gastric gavage administration (HPLC-UV, non-compartmental analysis)
- Format: in vivo, Wistar male rats
- testContext: male, Wistar, po, 26.1 mg/kg, rat brain stem, read-out: AUC0–24 h of DHC
measuredQuantity: AUC(0-t) (ng·h/mL)
Answer format: numeric, ng·h/mL implied, no suffix.

I have this compound here, COc1cc2c(cc1OC)-c1c(C)c3ccc(OC)c(OC)c3c[n+]1CC2 [DHC, dehydrocorydaline] , and I need its recorded AUC(0-t).
410

----------
- methodNotes: Tissue distribution of THP, DHC and protopine in rat tissues after gastric gavage administration (HPLC-UV, non-compartmental analysis)
- Type: in vivo, Wistar male rats
- testContext: male, Wistar, po, 6.45 mg/kg, rat diencephalons, read-out: MRT of THP
measuredQuantity: MRT

Field request: MRT | item: COc1cc2c(cc1OC)[C@@H]1Cc3ccc(OC)c(OC)c3CN1CC2 [THP, tetrahydropalmatine]
7.7 h

----------
- methodNotes: Tissue distribution of THP, DHC and protopine in rat tissues after gastric gavage administration (HPLC-UV, non-compartmental analysis)
- Assay type: in vivo, Wistar male rats
- testContext: male, Wistar, po, 4.52 mg/kg, rat cerebellum, read-out: AUC0–24 h of protopine
- Description: The experimental protocol was approved by the University's Animal Ethics Committee. […] Rats had unlimited access to water. Standard food was given until 12 h before the experiments. Rhizoma Corydalis was processed according to Pharmacopoeia of Chinese Medicine and National Guideline of Traditional Chinese Medicinal Plants Processing. Briefly, fresh Rhizoma Corydalis was boiled in water till the pith turn light brown color. Cooked rhizome was sliced into pieces (4 mm, diameter) and dried at 25 °C. […]
measuredQuantity: AUC(0-t) (ng·h/mL)
The answer is to be given in ng·h/mL; state only the numeric part.

Which AUC(0-t) value is on record for CN1CCc2cc3c(cc2C(=O)Cc2ccc4c(c2C1)OCO4)OCO3 [protopine] ?
3800

----------
- methodNotes: Tissue distribution of THP, DHC and protopine in rat tissues after gastric gavage administration (HPLC-UV, non-compartmental analysis)
- Assay type: in vivo, Wistar male rats
- testContext: male, Wistar, po, 26.1 mg/kg, rat hippocampus, read-out: Tmax of DHC
measuredQuantity: Tmax (h)
// note: answer is a bare numeric in h

Please give the measured Tmax for this compound: COc1cc2c(cc1OC)-c1c(C)c3ccc(OC)c(OC)c3c[n+]1CC2 [DHC, dehydrocorydaline]
1.08

----------
- methodNotes: Tissue distribution of THP, DHC and protopine in rat tissues after gastric gavage administration (HPLC-UV, non-compartmental analysis)
- Assay type: in vivo, Wistar male rats
- testContext: male, Wistar, po, 26.1 mg/kg, rat hippocampus, read-out: AUC0–24 h of DHC
measuredQuantity: AUC(0-t) (ng·h/mL)
Could you give me the number in ng·h/mL? Just the number is fine.

Endpoint output: AUC(0-t) of COc1cc2c(cc1OC)-c1c(C)c3ccc(OC)c(OC)c3c[n+]1CC2 [DHC, dehydrocorydaline] . Value?
270

----------
- methodNotes: Tissue distribution of THP, DHC and protopine in rat tissues after gastric gavage administration (HPLC-UV, non-compartmental analysis)
- Assay type: in vivo, Wistar male rats
- testContext: male, Wistar, po, 26.1 mg/kg, rat liver, read-out: MRT of DHC
measuredQuantity: MRT (h)
Lab book: enter the figure in h, no units written.

Entry under review: COc1cc2c(cc1OC)-c1c(C)c3ccc(OC)c(OC)c3c[n+]1CC2 [DHC, dehydrocorydaline] . Reported MRT?
4.85

----------
- methodNotes: Tissue distribution of THP, DHC and protopine in rat tissues after gastric gavage administration (HPLC-UV, non-compartmental analysis)
- Format: in vivo, Wistar male rats
- testContext: male, Wistar, po, 26.1 mg/kg, rat kidney, read-out: Tmax of DHC
measuredQuantity: Tmax (min)
Kindly provide the numeric value in min only, without the unit symbol.

Could you tell me which Tmax is on file for COc1cc2c(cc1OC)-c1c(C)c3ccc(OC)c(OC)c3c[n+]1CC2 [DHC, dehydrocorydaline] ?
15

----------
- methodNotes: Tissue distribution of THP, DHC and protopine in rat tissues after gastric gavage administration (HPLC-UV, non-compartmental analysis)
- Type: in vivo, Wistar male rats
- testContext: male, Wistar, po, 26.1 mg/kg, rat spleen, read-out: Cmax of DHC
measuredQuantity: Cmax

I would be grateful if you could share the reported Cmax for COc1cc2c(cc1OC)-c1c(C)c3ccc(OC)c(OC)c3c[n+]1CC2 [DHC, dehydrocorydaline] .
360 ng/mL
